Test system: RAW 264.7 cells
Experiment: Inhibition of LPS-induced NO production (Griess reagent)
Assay type: cell-based, murine
Details: Mus musculus, RAW264.7, 100 uM, 24 hours
Please use Satisfied whenever inhibition at 100 µM is not below 80%, and Not satisfied whenever it is.

Check out these entries, answers already filled in.
- compound: "COC(OC)[C@@]1(C)Oc2ccc([N+](=O)[O-])cc2[C@@H](NC(=NC#N)NCc2ccccc2)[C@@H]1O [Example 25]"
  assigned.category: "Not satisfied"
- compound: "COC(OC)[C@@]1(C)Oc2ccc(N)cc2[C@@H](NC(=NC#N)NCc2ccccc2)[C@@H]1O [Example 40]"
  assigned.category: "Not satisfied"
- compound: "COC(OC)[C@]1(C)Oc2ccc([N+](=O)[O-])cc2[C@@H](NC(=NC#N)Nc2cccc(C(F)(F)F)c2)[C@@H]1O [Example 7]"
  assigned.category: "Satisfied"

Is the recorded value of inhibition at 100 µM equal to or greater than 80% for this compound? COC(OC)[C@@]1(C)Oc2ccc([N+](=O)[O-])cc2[C@H](NC(=NC#N)NCc2ccccc2)[C@H]1O [Example 24]
Not satisfied

Reported inhibition at 100 µM reaches at least 80% for COC(OC)[C@@]1(C)Oc2ccc([N+](=O)[O-])cc2[C@H](NC(=NC#N)Nc2ccccc2Cl)[C@H]1O [Example 32] ?
Satisfied

Entry COC(OC)[C@@]1(C)Oc2ccc([N+](=O)[O-])cc2[C@@H](NC(=NC#N)NCc2ccccc2)[C@@H]1OC(C)=O [Example 38] : is its inhibition at 100 µM no less than 80%?
Satisfied

----------
Test system: HUVEC
Test: Inhibition of HUVEC tube formation on Matrigel
Assay type: cell-based, Human
Parameters: key: -: no effect; +/-: week effect; +: moderate effect; ++: strong effect
Conditions: 100 uM
endpoint: Inhibitory Effects on Tube Formation

Illustrative cases are given below, each with its answer.
- smiles.structure: "COC(OC)[C@@]1(C)Oc2ccc([N+](=O)[O-])cc2[C@H](NC(=NC#N)NCc2ccccc2)[C@H]1O"
  Inhibitory Effects on Tube Formation: "+"
- smiles.structure: "COC(OC)[C@@]1(C)Oc2ccc([N+](=O)[O-])cc2[C@@H](NC(=NC#N)NCc2cccc([N+](=O)[O-])c2)[C@@H]1O"
  Inhibitory Effects on Tube Formation: "++"
- smiles.structure: "COC(OC)[C@]1(C)Oc2ccc([N+](=O)[O-])cc2[C@@H](NC(=NC#N)Nc2ccc(Cl)cc2)[C@@H]1O"
  Inhibitory Effects on Tube Formation: "++"
- smiles.structure: "COC(OC)[C@@]1(C)Oc2ccc(N)cc2[C@@H](NC(=NC#N)NCc2ccccc2)[C@@H]1O"
  Inhibitory Effects on Tube Formation: "++"
- smiles.structure: "COC(OC)[C@@]1(C)Oc2ccc([N+](=O)[O-])cc2[C@H](NC(=NC#N)Nc2ccc(Cl)cc2)[C@H]1O"
  Inhibitory Effects on Tube Formation: "++"

We next turn to a different compound, shown below.
In one line, give reported Inhibitory Effects on Tube Formation of the entry "COc1ccc(NC(=NC#N)N[C@H]2c3cc([N+](=O)[O-])ccc3O[C@](C)(C(OC)OC)[C@@H]2O)cc1" .
+/-

----------
Assay: Acute oral toxicity test in rats
Details: rat, in vivo, single oral dose in 0.5% methyl cellulose, read-out: lethal dose (LD50) for oral administration
endpoint: LD50

Use these answered entries as a reference point.
- smiles.structure: "COC(OC)[C@@]1(C)Oc2ccc([N+](=O)[O-])cc2[C@H](NC(=NC#N)NCc2ccccc2Cl)[C@H]1O"
  LD50: "> 1000 mg/kg"
- smiles.structure: "COc1ccc(NC(=NC#N)N[C@@H]2c3cc([N+](=O)[O-])ccc3O[C@@](C)(C(OC)OC)[C@H]2O)cc1"
  LD50: "> 1000 mg/kg"
- smiles.structure: "COC(OC)[C@]1(C)Oc2c(N)cccc2[C@@H](NC(=NC#N)NCc2ccccc2)[C@@H]1O"
  LD50: "> 1000 mg/kg"

Here is another compound to look at.
Supply measured LD50 of "CCOC(OCC)[C@@]1(C)Oc2ccc(N)cc2[C@@H](NC(=NC#N)NCc2ccccc2)[C@@H]1O" in your reply.
> 1000 mg/kg
